Tested on: mice
Assay: Biological Example 5: acute toxicity experiment of single oral administration in mice
Assay type: in vivo
Conditions: Female mice; Day 3; single oral 1000 mg/Kg; Mean ± SD
Protocol: The mice were fasted one day before the experiment. On the day of the experiment, 6 mice (ICR mice, body weight of 19-21 g, three females and three males) were selected in each experiment group. First of all, one female and one male were selected to orally give 1000 mg/Kg, and observed for 5-10 minutes. If there were no obvious side effects, the remaining 4 animals were orally given the same dose, and observed for 10-15 minutes. […] The state was observed and the body weight was recorded daily. […]
Attribute: Daily Body Weight
Answer with a number only, understood to be in g.

The examples below pair each entry with its known result.
mice data for COCCN1C(=O)CCC(N2C(=O)c3cccc(F)c3C2=O)C1=O (stereo not shown) ; its Daily Body Weight: 23.2

mice data for Nc1cccc2c1C(=O)N(C1CCC(=O)N(CCO)C1=O)C2=O (stereo not shown) ; its Daily Body Weight: 21.6

mice data for CCOCCN1C(=O)CCC(N2C(=O)c3cccc(N)c3C2=O)C1=O (stereo not shown) ; its Daily Body Weight: 21.3

Continuing:
mice data for CSCCN1C(=O)CCC(N2C(=O)c3cccc(N)c3C2=O)C1=O (stereo not shown) ; its Daily Body Weight: 22.4

mice data for COCCN1C(=O)CCC(N2C(=O)c3ccc(O)c(N)c3C2=O)C1=O (stereo not shown) ; its Daily Body Weight: 24.3

mice data for CCOCCN1C(=O)CCC(N2C(=O)c3cccc(F)c3C2=O)C1=O (stereo not shown) ; its Daily Body Weight: 22.1

mice data for COCCN1C(=O)CCC(N2C(=O)c3ccc(F)c(N)c3C2=O)C1=O (stereo not shown) ; its Daily Body Weight: 22.1

----------
Attribute: Daily Body Weight
Test system: mice
Assay: Biological Example 5: acute toxicity experiment of single oral administration in mice
Assay type: in vivo
Settings: Male mice; Day 4; single oral 1000 mg/Kg; Mean ± SD
Answer with a number only, understood to be in g.

Per the record, COCCCN1C(=O)CCC(N2C(=O)c3cccc(N)c3C2=O)C1=O (stereo not shown) has Daily Body Weight of 26.6

Per the record, Nc1cccc2c1C(=O)N(C1CCC(=O)N(CCO)C1=O)C2=O (stereo not shown) has Daily Body Weight of 25.5

Per the record, COCCN1C(=O)CCC(N2C(=O)c3cccc(F)c3C2=O)C1=O (stereo not shown) has Daily Body Weight of 24.7

Per the record, COCCN1C(=O)CCC(N2C(=O)c3cccc(O)c3C2=O)C1=O (stereo not shown) has Daily Body Weight of 24.5

Per the record, COCCN1C(=O)CCC(N2C(=O)c3cccc(NC(C)=O)c3C2=O)C1=O (stereo not shown) has Daily Body Weight of 26.3

Per the record, COCCN1C(=O)CCC(N2C(=O)c3ccc(O)c(N)c3C2=O)C1=O (stereo not shown) has Daily Body Weight of 25.6

Per the record, CNc1cccc2c1C(=O)N(C1CCC(=O)N(CCOC)C1=O)C2=O (stereo not shown) has Daily Body Weight of 24.7

----------
Test system: mice
Assay: Biological Example 5: acute toxicity experiment of single oral administration in mice
Format: in vivo
Details: Female mice; Day 6; single oral 1000 mg/Kg; Mean ± SD
Attribute: Daily Body Weight
Answer with a number only, understood to be in g.

mice data for COCCN1C(=O)CCC(N2C(=O)c3c(N)ccc(O)c3C2=O)C1=O (centres unmarked) ; its Daily Body Weight: 24.1

mice data for COCCN1C(=O)CCC(N2C(=O)c3cccc(NC(C)=O)c3C2=O)C1=O (centres unmarked) ; its Daily Body Weight: 25.7

mice data for CS(=O)(=O)CCN1C(=O)CCC(N2C(=O)c3cccc(N)c3C2=O)C1=O (centres unmarked) ; its Daily Body Weight: 23.2

mice data for COCCCN1C(=O)CCC(N2C(=O)c3cccc(N)c3C2=O)C1=O (centres unmarked) ; its Daily Body Weight: 22.6

mice data for CSCCN1C(=O)CCC(N2C(=O)c3cccc(N)c3C2=O)C1=O (centres unmarked) ; its Daily Body Weight: 23.2

mice data for Nc1cccc2c1C(=O)N(C1CCC(=O)N(CCO)C1=O)C2=O (centres unmarked) ; its Daily Body Weight: 22.4

mice data for CCOCCN1C(=O)CCC(N2C(=O)c3cccc(F)c3C2=O)C1=O (centres unmarked) ; its Daily Body Weight: 23.3

mice data for COCCN1C(=O)CCC(N2C(=O)c3cccc(F)c3C2=O)C1=O (centres unmarked) ; its Daily Body Weight: 24.2

mice data for CCOCCN1C(=O)CCC(N2C(=O)c3cccc(N)c3C2=O)C1=O (centres unmarked) ; its Daily Body Weight: 23.3

mice data for COCCN1C(=O)CCC(N2C(=O)c3cccc(C)c3C2=O)C1=O (centres unmarked) ; its Daily Body Weight: 24.7

mice data for COCCN1C(=O)CCC(N2C(=O)c3ccc(F)c(N)c3C2=O)C1=O (centres unmarked) ; its Daily Body Weight: 22.7

mice data for COCCCN1C(=O)CCC(N2C(=O)c3ccc(N)cc3C2=O)C1=O (centres unmarked) ; its Daily Body Weight: 25.4

mice data for COCCCN1C(=O)CCC(N2C(=O)c3cccc(F)c3C2=O)C1=O (centres unmarked) ; its Daily Body Weight: 23.1

mice data for COCCN1C(=O)CCC(N2C(=O)c3ccc(O)c(N)c3C2=O)C1=O (centres unmarked) ; its Daily Body Weight: 25.8
